- tested-on: human CD33 P19L (human, UniProt P20138 18-364)
- Sequence (P20138 18-364 P19L limits assumed): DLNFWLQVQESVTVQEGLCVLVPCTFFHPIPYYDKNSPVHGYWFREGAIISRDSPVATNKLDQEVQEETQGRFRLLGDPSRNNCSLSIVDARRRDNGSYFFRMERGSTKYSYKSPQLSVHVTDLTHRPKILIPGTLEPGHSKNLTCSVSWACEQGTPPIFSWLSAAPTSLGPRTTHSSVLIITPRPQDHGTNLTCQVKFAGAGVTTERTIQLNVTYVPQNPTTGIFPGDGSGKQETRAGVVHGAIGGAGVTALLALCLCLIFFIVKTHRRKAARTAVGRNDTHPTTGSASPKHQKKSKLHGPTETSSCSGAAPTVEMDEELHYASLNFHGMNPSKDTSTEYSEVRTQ
- test-method-notes: flow cytometry, mutant on cells, IgG
Give measured Mean % WT Binding for each item. Keep answers brief.
One number for each entry, in % WT binding.

Study these solved cases before continuing.
1. Refmab #3 (antibody, human IgG1, V domains shown, Tested in IgG format; human IgG1 Fc silent (PG-LALA)) VH: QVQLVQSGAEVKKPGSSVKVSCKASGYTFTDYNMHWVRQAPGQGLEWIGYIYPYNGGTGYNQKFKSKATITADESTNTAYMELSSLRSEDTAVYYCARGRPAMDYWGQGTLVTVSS VL: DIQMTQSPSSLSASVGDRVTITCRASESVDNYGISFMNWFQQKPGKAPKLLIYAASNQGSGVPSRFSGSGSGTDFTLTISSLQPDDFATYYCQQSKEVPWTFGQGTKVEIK: 117
2. Refmab #2 (antibody, human IgG1, V domains shown, Tested in IgG format; human IgG1 Fc silent (PG-LALA)) VH: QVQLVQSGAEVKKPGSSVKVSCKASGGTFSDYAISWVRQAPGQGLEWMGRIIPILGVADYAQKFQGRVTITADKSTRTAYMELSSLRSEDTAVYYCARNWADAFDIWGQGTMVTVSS VL: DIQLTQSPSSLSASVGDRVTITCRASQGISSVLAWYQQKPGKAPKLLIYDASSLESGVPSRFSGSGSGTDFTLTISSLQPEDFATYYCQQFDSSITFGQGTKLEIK: 111
3. Refmab #1 (antibody, human IgG1, V domains shown, Tested in IgG format; human IgG1 (Absolute Antibody hP67.6, Cat. No. Ab00283-10.0); also called hP67.6) VH: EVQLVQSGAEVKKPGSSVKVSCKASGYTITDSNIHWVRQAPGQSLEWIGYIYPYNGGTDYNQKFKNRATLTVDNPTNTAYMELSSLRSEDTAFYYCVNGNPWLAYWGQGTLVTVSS VL: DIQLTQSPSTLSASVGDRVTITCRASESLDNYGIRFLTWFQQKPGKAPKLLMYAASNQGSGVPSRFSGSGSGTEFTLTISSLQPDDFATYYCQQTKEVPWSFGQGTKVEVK: 91.6

For the next question, use this binder.
Reported Mean % WT Binding for Refmab #4 (antibody, human IgG1, V domains shown, Tested in IgG format; human IgG1 Fc silent (PG-LALA)) VH: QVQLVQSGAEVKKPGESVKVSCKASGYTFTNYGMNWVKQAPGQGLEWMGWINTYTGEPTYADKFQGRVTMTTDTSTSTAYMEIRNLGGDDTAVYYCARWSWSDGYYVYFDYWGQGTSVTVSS VL: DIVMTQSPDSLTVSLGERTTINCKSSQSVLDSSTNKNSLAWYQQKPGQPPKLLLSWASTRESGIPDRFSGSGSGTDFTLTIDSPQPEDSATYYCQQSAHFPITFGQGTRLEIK was 101

Where these numbers come from: patent US20260242735A1
